Source listed as a protein production outcome set (Wang et al. 2014).

- Assay info: label from the status in PepcDB records
Experimental readout: protein production

MNNQYKLIEEFNNAEFDKSLKWFSPPKDWEVNSNKSKLIVKPDKETDFWQKTHYEFQVDNGHFLYYELNGDFRLITKVKSKPANRYDQAGLMVRFSKDTWLKTSVEYIPDDNSKLGVVVTKNGYSDWSSQEFFGDLNSLYYRITRRGNNYYVDYSLDGDLWKQIRMVYLFEEKDCMKVGIYACSPQGDGYEAEFEFIKIENIDDNTKVY
failed
MAVRVCCHAPPGVSNHLFTFCAGNLTTGFSGGSVTSQKGGAAGLPTCSRRCPRGCLPGSDPLPRHPRRYAPPVTPPVTPPTTPAPRSRARMLELVFPKDTNYHGTAFGGWVLALMDKAASVAAVRHAGGNVVTARMDGVDFHVPIRVGDAVALDARVIRVGRSSMTIRVDVYRENMASGEQQLATGGLFTFVALGEDGKPRPVPPLPEGSTDSEQPDYEARPLEHHHHHH
failed

====

- Assay info: label from the status in PepcDB records
Experimental readout: protein production

ATFFIKMNQKTVPEFKNKHLRLAISQAINKKGYVNSVLNDGSLPSNNFTGVGTADTPDGKDFARTIKSPLKFNPDLAKKNWREAQKELGKNKFTFTMNTQDTPASKIAAEYIKSQIESHLPGVTLKIKQMPFKQKTTLELANNYEASYSGWSPDYPDPTAFLQTMTKNNAQNNTDWSNKEYDQLLKDANSKLLRKLGERNTSLQKAEYILLHEAPVAPVYQ
failed
MSGKSSPLSVLEYLAIFAIIMTWGINNAAAKVATAYLPPMTVGGLRFLAALVFLFPFIRPPFPEPKKLAAIVLLTGPIHFGLVYVGFGMGQSLSPLVVASQLWIPFTALVAWKLLGETMRLPAVLGLIVAFVGVAWMTLDPHTSGDLPAIVLIVLASACWAVATILVRMTPGAKPLKVQAVTALFAAPSLLAMSFAFETQVVERVMTAPPIAWACVIFAGVVSTIGASALLFWLVQRREAGRVTPYFLLTPLVSCTLGVAFLGDKLTPQLLIGGAATMVGVALVAMTEKRARAEEALAETA
failed

====

- Assay info: label from the status in PepcDB records
Experimental readout: protein production

RSRRFAHLQLFAHLELPCWARIRDLLNIGLPIGISILMEGGLFIVTTLLIGRFGTDEIAAHQIALSVAQLCFMIPMGVAEATTVRIGHAVGRCDLLVMRRVAWAGYAIVIGTQTLSASVLLLGYDVIVAAYTDDLVVASLASKLLLFAAIFQFPDGLQMLSSGVLRGMKDTRVPM
failed
MAESIFRKLRDGGEEGELAPALTIEETVASPFGLDVSGYLLTNLSSSILAGKSSSQGLVLITFSRSPSFYLQLLKQKGIVVSSSSKWIRILDCYTDPLGWIDQSSTSFSEGSSLIKLHKCVSDLKKLFSSIIEAGRVRSLSKGLYEIKSDCFGAELVGTGKTRFCVAIDSKREVIIYLNFESAQISSVFWSLNTDLHQEKVTNALEYISTMKANLEPLCPSSDGQRNALENLFSVHQDFGKGRFHVRFKLRKGRVRVMSEEYHVDQSGINFSPISSVDTVIAATKSLLPKASYLDLLFNYLVQFNLQLSEKERVEKEKVVLPFEHQDDGKSNEIYDGRRSLVDGKIETTPLSSMELQTDVVSSGKGGEIIYFRDSDDEHPDSDEDPDDDLDI
not failed
MNKQQQSMNTNRSAQEMSETSPEYEQKYQQAIDCIENQEYGQAISILDELAGEASRDAKLRYARAVALLSNGEYRRAGTDLAFTVALDRSNLEAYRHLGFVLLTMGKEEAAIKVLEEALRRDPCFVEAWCVLADVHMDLGEHDKALDALDRAHELQPGNAEVHCKLAMYYMSRGDMRGLRAEYEVLREIEPDVAAQIAELLP
failed
MAEIDYKKVTGMIHSTESFGSVDGPGIRFIIFMQGCKMRCQYCHNPDTWEMETNNSKERTVEDVLKEALRYKHFWGKDGGITVSGGEAMLQIDFITALFIEAKKLGIHTTLDTCGFAYRATPEYHAILEKLLDVTDLVLLDLKEIDSEQHKIVTRQSNKNILQFARYLSDRGTPVWIRHVLVPGLTDIDDHLKRLGEFVQTLDNVDKFEVLPYHTMGEFKWRELGIPYPLAGVKPPTPERVKNAKDIMKTESYTEYLKRIQN
not failed
MKPTMMTYINEEEEMCRVILADFQTNAEKLESLVKNGAKEWLILATGSSLNAAQSAKYYIENLADVRITIEEPFNHLYYEKLSSHLDLVIGISQSGQSTSTISALERVKKEASVPVVALTSDVTSEIAEFADITLDIGSGKERVGYVTKGFTATVLTLMLTGLHFAYKTVQIDETRFNNEISAFSRAIDAIPATIAETEAFYERWQEEFATAPKFTAIGYGPTVGTCKEFETKFSETVRVPSQGLDLEAFMHGPYLEVNPQHRIFFLETASAVTERLVLLRDYESKYTPFTYTVKFGKGEDDRTLVIPTDLDEYQAPFLMILPFQILAHHIAELKGNKLTERIYTDFGVAMKSKTKPGDYA
not failed

Moving on to the next sequence.
Name the recorded protein production for MGHNAINRLQLVATLAEREVMRYTPAGVPIVNCLLSYSGQAMEAQAARQVEFSIEALGAGKMASVLDRIAPGTVLECVGFLARKHRSSKALVFHISGCNVFVKDLEHHHHHH .
not failed
